- TARGET UNDER TEST: T1, human CTLA4 (soluble analyte of the Biacore assays of Examples 3-3, 4 and 5) (human, UniProt P16410 36-161)
- T1 construct: also called hCTLA4
- T1 sequence: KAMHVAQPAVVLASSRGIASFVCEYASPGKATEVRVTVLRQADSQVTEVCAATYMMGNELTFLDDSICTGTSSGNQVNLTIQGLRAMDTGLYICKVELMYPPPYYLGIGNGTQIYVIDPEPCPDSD
- ASSAY NOTES: SPR 37C, Ab on Protein G, 1000 nM CTLA4, no ATP; no ATP; binding amount at 1000 nM CTLA4
READOUT KIND: Binding to Human CTLA4 (amount per unit antibody)
Give your answer as a number; write no unit.

See these solved cases before continuing.
[
  {
    "BINDER": "04H1077-G1m/04L1041-lam1 (antibody, human IgG1, lambda, V domains shown) VH: EVQLVESGGDLVKPGGGLRLSCAASGFTFSSRTMNWVRQAPGKGLEWVSSISTRSGYIYYAESVKGRFTISRDNAKNSLYLQMNSLRAEDTAVYYCARYGKREDMLWVFDYWGQGTLVTVSS VL: QSALTQPPSASGSPGQTVTISCDGPSTDVGDYNYVHWYQQHPGKAPKLMIYFTSKKPSGVPDRFSGSKSGNTASLTVSGLQAEDEADYFCSTYAAPLGPMFGGGTKLTVLG",
    "REPORTED MEASUREMENT": 0.006
  },
  {
    "BINDER": "04H1077-G1m/04L1067-lam1 (antibody, human IgG1, lambda, V domains shown) VH: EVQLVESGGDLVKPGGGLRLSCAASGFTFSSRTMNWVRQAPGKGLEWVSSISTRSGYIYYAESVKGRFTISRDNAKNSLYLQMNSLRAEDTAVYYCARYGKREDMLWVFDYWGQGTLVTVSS VL: QSALTQPPSASGSPGQTVTISCDGPSTGVGDYNYVHWYQQHPGKAPKLMIYFTSKKPSGVPDRFSGSKSGNTASLTVSGLQAEDEADYFCSTYAAPLGPMFGGGTKLTVLG",
    "REPORTED MEASUREMENT": 0.012
  },
  {
    "BINDER": "04H1077-G1m/04L1086-lam1 (antibody, human IgG1, lambda, V domains shown) VH: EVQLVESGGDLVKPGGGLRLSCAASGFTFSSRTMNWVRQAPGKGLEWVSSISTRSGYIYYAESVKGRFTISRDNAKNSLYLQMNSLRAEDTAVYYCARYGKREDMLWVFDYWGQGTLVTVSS VL: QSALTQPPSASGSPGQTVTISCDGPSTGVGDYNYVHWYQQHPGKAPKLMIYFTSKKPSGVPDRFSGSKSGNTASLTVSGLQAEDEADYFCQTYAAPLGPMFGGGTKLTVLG",
    "REPORTED MEASUREMENT": 0.01
  }
]

Alright, here's another binder for you.
binder 04H1077-G1m/04L1034-lam1 (antibody, human IgG1, lambda, V domains shown) VH: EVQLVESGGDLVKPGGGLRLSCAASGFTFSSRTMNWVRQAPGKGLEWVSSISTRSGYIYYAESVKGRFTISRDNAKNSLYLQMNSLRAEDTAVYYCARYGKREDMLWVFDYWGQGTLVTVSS VL: QSALTQPPSASGSPGQTVTISCDGPSTDVGDYNWVSWYQQHPGKAPKLMIYFTSKKPSGVPDRFSGSKSGNTASLTVSGLQAEDEADYFCSTYAAPLGPMFGGGTKLTVLG , Binding to Human CTLA4 (amount per unit antibody) observed: 0.004
